Test: clinical
Conditions: human, plasma, oral
Property Measured: AUC(0-inf) (ng·h/mL)

# Compound, Property Measured, Unit String, Endpoint Value
records = [
    ("O=C1CC[C@@]2(O)[C@H]3Cc4ccc(O)c5c4[C@@]2(CCN3CC2CC2)[C@H]1O5 [Naltrexone, naltrexone]", "AUC(0-inf)", "ng·h/mL", 8.55),
]

###

Assay: clinical
Conditions: both, human, plasma, oral

# Compound, Tmax
measured = [
    ("O=C1CC[C@@]2(O)[C@H]3Cc4ccc(O)c5c4[C@@]2(CCN3CC2CC2)[C@H]1O5 [Naltrexone, naltrexone]", "2 h"),
]

###

Assay: clinical
Details: human, plasma, oral
Property Measured: Tmax (h)

# Compound, Unit String, Endpoint Value
rows = [
    ("O=C1CC[C@@]2(O)[C@H]3Cc4ccc(O)c5c4[C@@]2(CCN3CC2CC2)[C@H]1O5 [Naltrexone, naltrexone]", "h", 1.27),
]

###

Experiment: clinical
Settings: both, human, in vivo

# Molecule, AUC(0-inf)
records = [
    ("CC(NC(C)(C)C)C(=O)c1cccc(Cl)c1 (stereo not shown) [Bupropion, bupropion]", "1620 ng·h/mL"),
]

###

Test: Example 2 (NB-236): steady-state food-effect extension study of NB 8/90 tablets, plasma pharmacokinetics
Conditions: both, human, plasma, po, AUC0-t, fasted, Day 33 or 34; mean ± SD

# Molecule, AUC0-t (ng·h/mL)
measured = [
    ("O=C1CC[C@@]2(O)[C@H]3Cc4ccc(O)c5c4[C@@]2(CCN3CC2CC2)[C@H]1O5 [Naltrexone, naltrexone]", 7.07),
]

###

Assay: Example 2 (NB-236): steady-state food-effect extension study of NB 8/90 tablets, plasma pharmacokinetics
Conditions: both, human, plasma, po, AUC0-t, fed high-fat meal, Day 33 or 34; mean ± SD

# Compound, Unit String, AUC0-t
records = [
    ("O=C1CC[C@@]2(O)[C@H]3Cc4ccc(O)c5c4[C@@]2(CCN3CC2CC2)[C@H]1O5 [Naltrexone, naltrexone]", "ng·h/mL", 11.8),
]

###

Assay: clinical
Conditions: both, human, plasma, oral
Property Measured: AUC(0-inf) (ng·h/mL)

# Compound, Property Measured, Endpoint Value
rows = [
    ("O=C1CC[C@@]2(O)[C@H]3Cc4ccc(O)c5c4[C@@]2(CCN3CC2CC2)[C@H]1O5 [Naltrexone, naltrexone]", "AUC(0-inf)", 8.39),
]

###

Test: clinical
Conditions: human, plasma, oral

# Compound, AUC0-t
measured = [
    ("O=C1CC[C@@]2(O)[C@H]3Cc4ccc(O)c5c4[C@@]2(CCN3CC2CC2)[C@H]1O5 [Naltrexone, naltrexone]", "8.3 ng·h/mL"),
]

###

Experiment: Example 2 (NB-236): steady-state food-effect extension study of NB 8/90 tablets, plasma pharmacokinetics
Settings: both, human, plasma, po, AUC0-t, fed moderate meal, Day 30; mean ± SD
Property Measured: AUC0-t

# Molecule, Property Measured, Endpoint Value
measured = [
    ("O=C1CC[C@@]2(O)[C@H]3Cc4ccc(O)c5c4[C@@]2(CCN3CC2CC2)[C@H]1O5 [Naltrexone, naltrexone]", "AUC0-t", "11.7 ng·h/mL"),
]

###

Assay: clinical
Details: both, human, in vivo, po, AUC0-t

# Molecule, AUC0-t
data = [
    ("CC(NC(C)(C)C)C(=O)c1cccc(Cl)c1 (stereo not shown)", "965 ng·h/mL"),
]
